EXPERIMENTAL SYSTEM: EGFR (UniProt P00533)
Sequence (P00533 whole entry, looked up): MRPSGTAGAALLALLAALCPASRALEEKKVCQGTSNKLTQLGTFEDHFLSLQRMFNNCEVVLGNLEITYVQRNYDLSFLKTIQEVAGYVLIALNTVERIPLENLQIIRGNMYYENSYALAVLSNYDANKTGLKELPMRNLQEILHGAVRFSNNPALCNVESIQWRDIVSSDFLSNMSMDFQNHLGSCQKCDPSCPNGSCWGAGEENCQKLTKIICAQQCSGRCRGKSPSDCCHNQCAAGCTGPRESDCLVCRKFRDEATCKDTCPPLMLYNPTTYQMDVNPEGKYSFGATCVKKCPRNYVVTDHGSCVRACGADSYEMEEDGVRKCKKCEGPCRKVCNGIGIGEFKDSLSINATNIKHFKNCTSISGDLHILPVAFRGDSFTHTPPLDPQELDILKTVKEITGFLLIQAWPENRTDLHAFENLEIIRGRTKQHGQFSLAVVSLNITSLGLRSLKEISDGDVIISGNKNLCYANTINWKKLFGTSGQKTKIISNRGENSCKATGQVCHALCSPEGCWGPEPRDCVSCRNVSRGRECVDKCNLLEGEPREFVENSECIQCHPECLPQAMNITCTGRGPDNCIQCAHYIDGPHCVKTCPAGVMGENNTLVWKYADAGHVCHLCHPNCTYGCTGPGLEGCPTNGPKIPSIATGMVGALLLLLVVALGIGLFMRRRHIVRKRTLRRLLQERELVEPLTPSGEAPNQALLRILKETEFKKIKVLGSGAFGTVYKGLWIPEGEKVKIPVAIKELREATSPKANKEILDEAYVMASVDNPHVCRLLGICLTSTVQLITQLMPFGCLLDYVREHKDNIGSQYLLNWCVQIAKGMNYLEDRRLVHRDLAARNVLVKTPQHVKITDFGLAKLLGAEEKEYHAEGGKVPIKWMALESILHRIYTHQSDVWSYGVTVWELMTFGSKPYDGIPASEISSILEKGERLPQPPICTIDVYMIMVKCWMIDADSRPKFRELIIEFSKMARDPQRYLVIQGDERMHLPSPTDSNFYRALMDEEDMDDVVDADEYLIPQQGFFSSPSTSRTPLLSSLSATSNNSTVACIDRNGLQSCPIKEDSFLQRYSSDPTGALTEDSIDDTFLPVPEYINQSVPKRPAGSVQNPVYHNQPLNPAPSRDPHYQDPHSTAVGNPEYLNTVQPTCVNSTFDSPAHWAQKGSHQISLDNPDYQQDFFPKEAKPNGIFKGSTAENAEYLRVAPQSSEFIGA
RESULT TYPE: pIC50
Worth noting: pIC50 values are minus log10 of concentrations stated in mol/L.

Record for COCCN(C)CCOc1ccc2[nH]c(-c3cc4ccccc4[nH]c3=O)cc2c1 under target or system EGFR (UniProt P00533): pIC50 reported as 5.07

====

EXPERIMENTAL SYSTEM: CDK2 (human) (UniProt P24941)
EXPERIMENT SUMMARY: Enzyme Assay
RESULT TYPE: Kd
State the value with its unit after it.

# Kd (molecule: Cc1nc(-c2cnc3ccc(-c4cncc(NS(=O)(=O)c5ccccc5)c4)cn23)no1 ) is 710 nM
